This collection of values is drawn from PubChem BioAssay (NCI).

- Test system: NCI-H23 lung
- MEASUREMENT_DESCRIPTION: NCI-60 one-dose screen, 48 h (100 = growth as untreated, 0 = no growth, -100 = all killed)
- CONDITION_PARAMETERS: 10 µM unless noted
About 83,000 compounds went through this panel and 20% of them were active in at least one assay; those are over-represented in the sample as a whole.
REPORTED_ENDPOINT: growth (%)
Answers are plain numbers, in %.

Use these answered entries as a reference point.
CN(C)CCn1c2ccccc2c2nc3ccc([N+](=O)[O-])cc3nc21: -9.77
COc1ccc(C(=O)/C=C/c2cccc(Br)c2)cc1S(N)(=O)=O: -66.3

Batch request: growth for each of the following compounds.
1. Cc1ccc(-c2nc(Nc3ccccc3S(N)(=O)=O)c3ccccc3n2)cc1
2. CC(=O)/C=C/c1cccc2c1C(=O)NC(C)(c1cc3cc(Br)ccc3oc1=O)N2 (centres undefined)
3. CCS(=O)(=O)N1CCCC(C(=O)Nc2nc3ccc(NC(=O)c4ccc(F)c(OC)c4F)cc3s2)C1 (centres undefined)
4. O=C(O)c1ccc(-c2ccc(/C=N/NC(=O)c3[nH]c4ccc(Br)cc4c3-c3ccccc3)s2)cc1
5. Cc1cccc(-c2nc(Nc3cccc(S(N)(=O)=O)c3)c3ccccc3n2)c1

Reply |
1. 68.2
2. 17.9
3. 47.5
4. 8.04
5. 39.6

Batch request: growth for each of the following compounds.
1. O=c1c2ccccc2nc(-c2ccccc2)n1/N=C/c1ccc2ccccc2c1
2. CN1CCN(c2ccc(C(=O)/C=C/c3cc(C(F)(F)F)cc(C(F)(F)F)c3)cc2)CC1

Reply |
68.2
-66.2
